# Tested on: HOP-92 NSCLC
# assay.comment: NCI tumour cell line growth inhibition, 48 h
Could you label it TRUE if measured TGI is 9 µM or higher, and FALSE otherwise?

Sample answers from the record:
1) C[N+](C)(C)CCN(Cc1cccs1)c1ccccn1 :: TRUE
2) COc1cc2c(cc1I)-c1c(cc(OC)c(OC)c1OC)CC[C@@H]2NC(C)=O :: TRUE
3) CCOC(=O)C(C)c1c(C(=O)c2ccc(C)nc2)c2ccccc2n1C (stereo not drawn) :: TRUE
4) CCCCCCCCCCCCCCCC/C(C(=O)OC)=C(/O)C(=O)OCC :: TRUE
5) COc1cc(OC)c2c(c1)C(=O)C(CC1(C)OCCCO1)=CC2=O :: FALSE

Request: Does the compound "CC1=NC(C)(C)[N+]([O-])=C1" have recorded TGI that is 9 µM or more?
Result: TRUE

Request: Does the compound "CCCN=Cc1c(O)c(O)c(C(C)C)c2cc(C)c(-c3c(C)cc4c(C(C)C)c(O)c(O)c(C=NCCC)c4c3O)c(O)c12" have recorded TGI that is 9 µM or more?
Result: FALSE

Request: Does the compound "c1ccc2cc(C[n+]3ccn(CCCCCCCCCCCCn4cc[n+](Cc5ccc6ccccc6c5)c4)c3)ccc2c1" have recorded TGI that is 9 µM or more?
Result: FALSE

====

# System: T-47D breast
# assay.comment: NCI tumour cell line growth inhibition, 48 h
experimental.readout: TGI (µM)
# number only, unit µM dropped from output

Examples from the recorded data:
1) N#Cc1c(-c2ccccc2)cc(-c2ccccc2)n(CCCC(=O)NO)c1=O :: 8.34
2) CO[C@@H]1C[C@H](OC(N)=O)[C@@H]2C=C[C@@H]3/C=C(C)/C=C/[C@@H](C)[C@H]([C@H](C)[C@H](O)[C@@H](C)NC(C)=O)OC(=O)/C=C/C=C(C)\C=C\[C@]3(C)[C@@H]2C1 :: 11
3) CN(C)c1cc[n+](/C(NS(=O)(=O)c2cc(C(=O)Nc3ccc(Cl)cc3)c(Cl)cc2[S-])=C(\C#N)C(=O)c2ccccc2)cc1 :: 77.7
4) CN(C)CCNc1ccc2nnn3c4ccccc4c(=O)c1c23 :: 32.3
5) CCOC(=O)N1C/C(=C/c2ccc(Cl)cc2)C(=O)/C(=C/c2ccc(Cl)cc2)C1 :: 35.5
6) c1cc2c(s1)SSSSS2 :: 32.4
7) COC1/C=C\C=C(/C)C(=O)NC2=CC(=O)C(N)=C(CC(C)CC(OC)C(O)C(C)C=C(C)C1OC(N)=O)C2=O (stereo not drawn) :: 33.7
8) c1ccc2cc(C[n+]3ccn(CCCCCCCCCCCCn4cc[n+](Cc5ccc6ccccc6c5)c4)c3)ccc2c1 :: 1.78

Request: Which TGI is reported for this compound? O=C1C(Cl)C(c2cc3cc(Br)ccc3nc2Cl)N1c1ccc(F)c(Cl)c1 (stereo not drawn)
Result: 27.4

Request: Which TGI is reported for this compound? "CC(C)(C)c1ccc(C(C)(C)C)c(N2C(=O)[C@@H]3[C@@H]4C=C[C@@H](C4)[C@]3(C)C2=O)c1"
Result: 82.6

Request: Which TGI is reported for this compound? "O=[N+]([O-])c1cc(Cl)c(Cl)cc1[N+](=O)[O-]"
Result: 6.63

====

# Tested on: NCI-H226 lung
# assay.comment: NCI tumour cell line growth inhibition, 48 h
experimental.readout: TGI (µM)
# number only, unit µM dropped from output

Examples from the recorded data:
1. CCCCCC(=O)N[C@H]1CCc2cc(O)c(O)c(O)c2-c2ccc(SC)c(=O)cc21 :: 72.6
2. Cn1ncc(NC(=O)c2nc(-c3c(F)cccc3F)sc2N)c1N1CC[C@@H](N)[C@H](F)CC1 :: 27
3. O=C(CC1(O)C(=O)Nc2c(Cl)ccc(Cl)c21)c1ccco1 (stereo not given) :: 47.5
4. CC(=O)NS(=O)(=O)c1ccc(-n2nc(-c3ccc(Cl)cc3)cc2-c2cc(O)ccc2O)cc1 :: 36.2
5. CCN(CC)CCNc1ccc2nnn3c4ccc([N+](=O)[O-])cc4c(=O)c1c23 :: 17

Request: Which TGI is reported for this compound? "Cc1ccc(O)c(C(c2ccc(C(c3cc(C)ccc3O)c3cc(C)ccc3O)cc2)c2cc(C)ccc2O)c1"
Result: 3.61

Request: Which TGI is reported for this compound? "CN(C)c1cc[n+](/C(NS(=O)(=O)c2cc(C(=O)Nc3ccc(Cl)cc3)c(Cl)cc2[S-])=C(\C#N)C(=O)c2ccccc2)cc1"
Result: 49.3

Request: Which TGI is reported for this compound? O=C1C(Cl)C(c2cc3cc(Br)ccc3nc2Cl)N1c1ccc(F)c(Cl)c1 (stereo not given)
Result: 40.2

Request: Which TGI is reported for this compound? "COc1ccc(-c2cc(-c3ccccc3)nc(SCCCC(=O)NO)n2)cc1OC"
Result: 5.54

Request: Which TGI is reported for this compound? "COc1cc2c3c(n(CCCNCCNCCN)c(=O)c2cc1OC)-c1cc2c(cc1C3=O)OCO2"
Result: 21.4

Request: Which TGI is reported for this compound? "Nc1nc(N)c(N=Nc2ccccc2)c(-c2ccccc2)n1"
Result: 19.4

Request: Which TGI is reported for this compound? "COc1cc(-c2ccc(-c3ccc(C(=N)N)cc3)s2)cc(OC)c1OC"
Result: 6.58

====

# System: SK-MEL-5 melanoma
# assay.comment: NCI tumour cell line growth inhibition, 48 h
experimental.readout: TGI

Examples from the recorded data:
1. c1coc(C2=Nc3cccc4cccc(c34)N2)c1 :: > 100 µM
2. Clc1cc(Cl)cc(-c2ccc(-c3ccc(/C=N/NC4=NCCN4)cc3)s2)c1 :: > 100 µM

Request: # get_value(readout= TGI, system= SK-MEL-5 melanoma) for "CNc1ccccc1-c1nc2ccccc2c(=O)o1"
Result: > 100 µM

Request: # get_value(readout= TGI, system= SK-MEL-5 melanoma) for COC(=O)CN(CC1O[C@@H]2OC(C)(C)O[C@@H]2C1N=[N+]=[N-])C(=O)OCc1ccccc1 (stereo partly specified)
Result: > 100 µM

Request: # get_value(readout= TGI, system= SK-MEL-5 melanoma) for "CCn1c(=O)c(Oc2ccc(F)cc2F)cc2cnc(NC3CCOCC3)nc21"
Result: > 25 µM

Request: # get_value(readout= TGI, system= SK-MEL-5 melanoma) for "Cc1cc(Nc2ccc(S(=O)(=O)O)cc2)c2ccccc2n1"
Result: > 100 µM

====

# Tested on: RXF 393 renal
# assay.comment: NCI tumour cell line growth inhibition, 48 h
TGI reference
# number only, unit nM dropped from output

Examples from the recorded data:
1) CCC[CH2][Sn]1([CH2]CCC)[O]C(=O)c2cccc(C)c2[O]1 :: 1020
2) Cc1c2c(cc3c1[nH]c1ccccc13)C(c1ccc(Cl)cc1)=NCC2 :: 2450
3) O=C1C=CC(=O)c2cc3cc(CO)ccc3cc21 :: 29900

Request: Which TGI is reported for this molecule? CC1(C)C(N(O)C(=O)Nc2ccc(Cl)cc2)N(c2ccc(Cl)cc2)C(=O)N1CC(=O)N/N=C/C=C/c1ccc([N+](=O)[O-])o1 (stereo unspecified)
Result: 1640

====

# Test system: SW-620 colon
# assay.comment: NCI tumour cell line growth inhibition, 48 h
experimental.readout: TGI

1. COc1c(C)c(O)c2c(=O)cc(-c3ccccc3)oc2c1C :: > 100 µM
2. Cc1cc(=O)oc2cc(OCc3nc4ccccc4c(=O)n3-c3ccccc3)ccc12 :: > 100 µM
3. O=C(N[C@@H](c1ccccc1)[C@@H](O)C(=O)OCc1ccc2c(c1)OCO2)c1ccccc1 :: > 100 µM

Now consider the entry below.
Request: Which TGI is reported for this compound? "O=[N+]([O-])c1ccc2c(c1)Sc1ccccc1N2"
Result: > 100 µM

====

# Test system: IGROV1 ovarian
# assay.comment: NCI tumour cell line growth inhibition, 48 h
TGI reference

Examples from the recorded data:
1. COc1cc([C@@H]2c3cc4c(cc3[C@@H](Nc3ccc(N=Cc5ccc(C(=O)O[C@@H](C(=O)O[C@H]6C[C@@]7(O)[C@@H](OC(=O)c8ccccc8)[C@@H]8[C@]9(OC(C)=O)CO[C@@H]9C[C@H](O)[C@@]8(C)C(=O)[C@H](OC(C)=O)C(=C6C)C7(C)C)[C@@H](NC(=O)c6ccccc6)c6ccccc6)cc5)cc3)[C@H]3COC(=O)[C@H]23)OCO4)cc(OC)c1O :: > 50 µM
2. O=C(c1ccccc1)N1CCN2CCN=C(c3ccccc3)C21c1ccccc1 (configuration not stated) :: > 100 µM
3. COc1cc2c3c(n(CCCNCCNCCN)c(=O)c2cc1OC)-c1cc2c(cc1C3=O)OCO2 :: > 100 µM
4. COc1c(C)c(O)c2c(=O)cc(-c3ccccc3)oc2c1C :: > 100 µM
5. CCN(CC)CCNc1ccc2nnn3c4ccc([N+](=O)[O-])cc4c(=O)c1c23 :: > 100 µM

Request: Which TGI is reported for this molecule? "O=C(Nc1ccc(OCc2nnc(-c3ccc(Cl)cc3)o2)c(F)c1)c1ccc(Cl)c(C(F)(F)F)c1"
Result: > 50 µM

Request: Which TGI is reported for this molecule? "COc1ccc(/C=C/C(=O)c2cc3c(N)c(C(=O)Nc4cccc(Cl)c4C)sc3nc2C)cc1"
Result: > 50 µM

Request: Which TGI is reported for this molecule? "CS(=O)(=O)O[C@H]1C(=O)N(c2cc3c4ccccc4ccc3c3ccccc23)[C@@H]1c1ccccc1"
Result: > 100 µM

Request: Which TGI is reported for this molecule? "O=C(CCc1n[nH]c(=S)o1)Nc1ccc(Cl)cc1Cl"
Result: > 100 µM

Request: Which TGI is reported for this molecule? "CC(C)(C)OC(=O)NCCc1ccc(N)cc1"
Result: > 100 µM

Request: Which TGI is reported for this molecule? "c1coc(C2=Nc3cccc4cccc(c34)N2)c1"
Result: > 100 µM

Request: Which TGI is reported for this molecule? "COc1cc(/C=N/n2c(-c3ccccc3)n[nH]c2=O)cc(OC)c1OC"
Result: > 100 µM
